These entries and their values trace back to patent US8436039B2.

- target entity: ATB^0,+ in MCF7 cells (Homo sapiens)
- Sequence (Q9UN76 1-642): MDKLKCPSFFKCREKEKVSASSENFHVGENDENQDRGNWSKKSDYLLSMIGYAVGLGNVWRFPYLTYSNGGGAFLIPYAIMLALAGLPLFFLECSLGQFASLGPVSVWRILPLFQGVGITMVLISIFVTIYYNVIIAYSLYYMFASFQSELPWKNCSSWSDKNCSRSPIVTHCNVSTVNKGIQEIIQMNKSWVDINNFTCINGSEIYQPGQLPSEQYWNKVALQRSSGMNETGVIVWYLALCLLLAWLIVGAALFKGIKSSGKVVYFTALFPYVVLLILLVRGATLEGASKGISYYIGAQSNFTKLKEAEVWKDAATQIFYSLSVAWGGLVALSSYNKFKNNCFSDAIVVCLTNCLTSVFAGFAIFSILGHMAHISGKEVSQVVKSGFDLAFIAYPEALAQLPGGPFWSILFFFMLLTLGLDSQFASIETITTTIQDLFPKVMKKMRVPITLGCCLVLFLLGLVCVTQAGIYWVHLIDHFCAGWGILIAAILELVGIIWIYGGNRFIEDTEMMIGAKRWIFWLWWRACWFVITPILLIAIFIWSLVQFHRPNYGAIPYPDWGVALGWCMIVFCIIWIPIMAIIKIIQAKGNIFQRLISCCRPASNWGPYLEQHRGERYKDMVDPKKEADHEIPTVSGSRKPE
- test method notes: D-serine uptake in MCF7 cells (constitutively expressed ATB^0,+)
- recorded conditions: D-serine 5 μM; MCF7 cells; NaCl; read-out: IC50 for inhibition of D-serine uptake
So I've got a bunch of compounds here, and I need their pIC50 values.
Please treat pIC50 as minus the base-10 logarithm of the molar concentration.

Record request: pIC50 value, item Cn1cc(C[C@@H](N)C(=O)O)c2ccccc21 [1-methyl-D-tryptophan]
2.80

Ok, now Cn1cc(CC(N)C(=O)O)c2ccccc21 (racemic) [1-methyl-DL-tryptophan]
3.66

Ok, now Cn1cc(C[C@H](N)C(=O)O)c2ccccc21 [1-methyl-L-tryptophan]
4.07

###

- target entity: mouse ATB^0,+ (Mus musculus)
- test method notes: Inhibition of ATB^0,+-mediated glycine uptake in HRPE cells expressing cloned mouse ATB^0,+
- Format: cell-based
- recorded conditions: glycine 10 μM; inhibitor 1 mM; 30 min; NaCl; HRPE cells
measured quantity: inhibition of ATB^0,+-specific glycine uptake

The examples below pair each entry with its known result.
N[C@@H](Cc1c[nH]c2ccccc12)C(=O)O : inhibited
NCCc1c[nH]c2ccc(O)cc12 [5-hydroxytryptamine] : not able to inhibit
COC(=O)[C@@H](N)Cc1c[nH]c2ccccc12 : inhibited
CC(N)(Cc1c[nH]c2ccccc12)C(=O)O (racemic) : inhibited

Record request: inhibition of ATB^0,+-specific glycine uptake value, item CC(=O)N[C@@H](Cc1c[nH]c2ccccc12)C(=O)O
not able to inhibit

###

- target entity: mouse ATB^0,+ (Mus musculus, UniProt Q9JMA9)
- Sequence (Q9JMA9 whole entry): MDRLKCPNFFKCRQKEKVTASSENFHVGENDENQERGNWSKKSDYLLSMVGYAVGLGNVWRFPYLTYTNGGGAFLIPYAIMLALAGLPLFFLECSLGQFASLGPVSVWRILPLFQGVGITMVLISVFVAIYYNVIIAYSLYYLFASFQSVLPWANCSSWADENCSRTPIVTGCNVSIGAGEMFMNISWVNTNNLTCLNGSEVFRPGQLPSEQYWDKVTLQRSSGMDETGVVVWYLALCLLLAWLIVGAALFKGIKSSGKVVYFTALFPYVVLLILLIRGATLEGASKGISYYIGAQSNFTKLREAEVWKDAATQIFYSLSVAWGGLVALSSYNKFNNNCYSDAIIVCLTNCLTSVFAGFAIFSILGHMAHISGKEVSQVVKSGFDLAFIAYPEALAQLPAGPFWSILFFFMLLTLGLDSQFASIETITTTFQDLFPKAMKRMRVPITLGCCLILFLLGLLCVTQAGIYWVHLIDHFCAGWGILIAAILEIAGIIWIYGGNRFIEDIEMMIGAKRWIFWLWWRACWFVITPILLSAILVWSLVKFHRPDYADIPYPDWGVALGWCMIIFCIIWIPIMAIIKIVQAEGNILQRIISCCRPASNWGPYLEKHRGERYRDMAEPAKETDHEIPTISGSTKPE
- test method notes: Substrate-induced inward currents in X. laevis oocytes expressing mouse ATB^0,+ (two-microelectrode voltage clamp)
- Format: cell-based
- recorded conditions: 2.5 mM; voltage clamp; NaCl
measured quantity: inward currents induced in ATB^0,+-expressing oocytes

NCCc1c[nH]c2ccc(O)cc12 [5-hydroxytryptamine] : did not induce currents
CC(=O)N[C@@H](Cc1c[nH]c2ccccc12)C(=O)O : did not induce currents
